- Study Target: human hNET (Homo sapiens, UniProt P23975)
- Construct: expressed in transfected cells; host or cells: MDCK-Net6 (MDCK cells, stably transfected)
- Sequence (P23975 whole entry): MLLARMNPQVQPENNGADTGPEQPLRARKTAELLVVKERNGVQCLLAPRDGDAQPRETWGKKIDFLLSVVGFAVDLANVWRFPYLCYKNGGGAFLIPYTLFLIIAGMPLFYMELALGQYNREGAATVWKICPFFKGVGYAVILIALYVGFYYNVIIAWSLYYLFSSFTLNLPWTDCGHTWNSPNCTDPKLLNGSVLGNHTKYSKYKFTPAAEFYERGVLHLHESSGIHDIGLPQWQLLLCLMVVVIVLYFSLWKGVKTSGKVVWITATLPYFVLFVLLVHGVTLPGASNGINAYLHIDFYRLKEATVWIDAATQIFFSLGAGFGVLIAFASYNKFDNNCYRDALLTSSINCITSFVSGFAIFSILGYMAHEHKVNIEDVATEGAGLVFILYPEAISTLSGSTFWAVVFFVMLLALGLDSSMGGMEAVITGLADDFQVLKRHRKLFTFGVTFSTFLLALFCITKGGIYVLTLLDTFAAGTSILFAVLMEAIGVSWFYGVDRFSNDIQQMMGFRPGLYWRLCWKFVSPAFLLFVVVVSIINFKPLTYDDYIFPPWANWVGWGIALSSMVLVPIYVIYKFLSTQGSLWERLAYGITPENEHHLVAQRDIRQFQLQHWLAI
- Assay: Norepinephrine (NE) uptake assay in MDCK-Net6 cells
- Assay type: cell-based
- Test Conditions: MDCK-Net6, read-out: % Inhibition @ 1 μM (hNET), 1 μM test compound, [3H]NE uptake
Structures can show the parent of a compound that is named as a salt.
Recorded measurements of inhibition at 1 µM, one per entry

# Compound, Study Target, inhibition at 1 µM
rows = [
    ("CN1CCN(CC(c2cccc(OC(F)(F)F)c2)C2(O)CCCCC2)CC1 (stereo not shown) [Example 24, dihydrochloride]", "human hNET (Homo sapiens, UniProt P23975)", "85%"),
    ("CN1CCN(C[C@H](c2cccc(OC(F)(F)F)c2)C2(O)CCCCC2)CC1 [Example 245, dihydrochloride]", "human hNET (Homo sapiens, UniProt P23975)", "88%"),
    ("CN1CCN(CC(c2ccc(OC(F)(F)F)cc2)C2(O)CCCCC2)CC1 (stereo not shown) [Example 283, dihydrochloride]", "human hNET (Homo sapiens, UniProt P23975)", "70.7%"),
    ("OC1(C(CN2CCNCC2)c2cccc(-c3ccccc3F)c2)CCCCC1 (stereo not shown) [Example 140, maleate]", "human hNET (Homo sapiens, UniProt P23975)", "52%"),
]
